Examples of compounds with documented pIC50 follow.
- target or system: human calcium-sensing receptor (CaSR) (Homo sapiens)
- Sequence (P41180 20-1078): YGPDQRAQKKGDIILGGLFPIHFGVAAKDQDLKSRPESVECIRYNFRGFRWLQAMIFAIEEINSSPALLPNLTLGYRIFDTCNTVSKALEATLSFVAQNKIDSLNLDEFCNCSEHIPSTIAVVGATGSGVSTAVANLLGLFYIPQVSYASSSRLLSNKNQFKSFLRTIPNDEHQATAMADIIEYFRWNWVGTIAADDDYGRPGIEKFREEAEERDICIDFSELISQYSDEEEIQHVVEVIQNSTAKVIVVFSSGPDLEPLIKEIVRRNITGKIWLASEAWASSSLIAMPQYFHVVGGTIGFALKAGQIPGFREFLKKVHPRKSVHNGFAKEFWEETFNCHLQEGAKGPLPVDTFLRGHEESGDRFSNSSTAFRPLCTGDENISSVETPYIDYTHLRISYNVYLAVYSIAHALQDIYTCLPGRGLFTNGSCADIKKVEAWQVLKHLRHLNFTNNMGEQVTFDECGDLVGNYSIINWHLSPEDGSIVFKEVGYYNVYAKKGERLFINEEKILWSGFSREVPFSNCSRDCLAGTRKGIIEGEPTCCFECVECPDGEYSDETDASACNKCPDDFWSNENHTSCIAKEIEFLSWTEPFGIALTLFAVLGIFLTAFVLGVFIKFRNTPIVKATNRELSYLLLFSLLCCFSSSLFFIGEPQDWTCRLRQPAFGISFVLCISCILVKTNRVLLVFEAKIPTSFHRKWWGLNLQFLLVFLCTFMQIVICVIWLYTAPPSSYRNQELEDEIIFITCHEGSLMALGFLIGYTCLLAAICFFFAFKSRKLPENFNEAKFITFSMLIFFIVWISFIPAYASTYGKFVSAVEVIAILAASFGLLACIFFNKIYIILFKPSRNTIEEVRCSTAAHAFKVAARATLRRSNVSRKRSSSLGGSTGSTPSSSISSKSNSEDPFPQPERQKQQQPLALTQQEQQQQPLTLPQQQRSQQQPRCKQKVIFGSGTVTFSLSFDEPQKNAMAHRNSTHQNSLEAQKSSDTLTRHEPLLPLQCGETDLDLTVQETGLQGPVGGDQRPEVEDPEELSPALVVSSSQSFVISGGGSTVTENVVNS
- assay summary: Inhibitory activity on calcium-sensing receptor (CaSR), intracellular calcium increase as indicator (FLIPR, CHO/hCaSR)
- conditions used: CHO cells stably expressing human CaSR; inhibition of intracellular Ca increase induced by extracellular CaCl2
pIC50: −log10 of the molar value.

>  <compound>
Cc1ccc(C[C@@H]2CCCN2C[C@@H](O)COC(C)c2c(Cl)cccc2CCC(=O)O)cc1F (some centres unmarked)

>  <endpoint result>
≥ 5.48

$$$$
>  <compound>
Cc1ccc(C[C@@H]2CCCN2C[C@@H](O)CO[C@H](C)c2cc(Cl)ccc2CCC(=O)O)cc1F

>  <endpoint result>
≥ 5.48

$$$$
>  <compound>
Cc1ccc(C[C@@H]2CCCN2C[C@@H](O)CO[C@H](C)c2ccccc2CCc2nn[nH]n2)cc1F

>  <endpoint result>
≥ 5.51

$$$$
>  <compound>
C[C@@H](OC[C@H](O)CN1CCC[C@H]1Cc1ccc(Cl)c(Cl)c1)c1ccc(Cl)cc1CCC(=O)O

>  <endpoint result>
≥ 5.51

$$$$
>  <compound>
Cc1ccc(C[C@@H]2CCCN2C[C@@H](O)CO[C@H](C)c2cc(F)ccc2CCC(=O)O)cc1F

>  <endpoint result>
≥ 5.46

$$$$
>  <compound>
Cc1ccc(C[C@@H]2CCCN2C[C@@H](O)CO[C@H](C)c2cccc(C)c2CCC(=O)O)cc1F

>  <endpoint result>
≥ 5.46

$$$$

Exercise: Return reported pIC50; argument: "CC[C@@H](OC[C@H](O)CN1CCC[C@H]1Cc1ccc(Cl)c(Cl)c1)c1ccc(Cl)cc1CCC(=O)O"
Solution: ≥ 5.52

Exercise: Return reported pIC50; argument: "CC[C@@H](OC[C@H](O)CN1CCC[C@H]1Cc1ccc(C)c(F)c1)c1cccc(C)c1CCC(=O)O"
Solution: ≥ 5.47

Exercise: Return reported pIC50; argument: "C[C@@H](OC[C@H](O)CN1CCC[C@H]1Cc1ccc(Cl)c(F)c1)c1cc(F)cc(F)c1CCC(=O)O"
Solution: ≥ 5.49
